Test: small molecules boosting NK-mediated OVCAR3 lysis – imaging, primary NK cells, calcein-AM imaging, primary screen (AID 1508625);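 note: compound given to NK cells 16 h before adding targets at 1.5 to 1 ratio; more negative robust z means stronger NK killing of tumor cells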
Details: OVCAR3 lysis by primary NK cells, at 5 µM; measured here: robust Z-score, single-point normalisation
I'd be grateful if you could share measured z-score for these entries.
Just the number, please.

(Q) Value lookup for z-score; key = `Cc1c(C(=O)NCc2ccc(F)cc2)sc2ncn(Cc3ccccc3Cl)c(=O)c12`
(A) -0.998

(Q) Which z-score value is on record for `COc1ccc(-n2c(=S)[nH]c3cc(C(=O)O)ccc3c2=O)c(OC)c1` ?
(A) -1.46

(Q) Can you share its z-score? I mean this molecule: `c1ccc(-c2nnc3n2C2(CCCCC2)Cc2ccccc2-3)cc1`
(A) 0.417

(Q) // lookup z-score for COc1ccc(C(O)=C2C(=O)C(=O)N(c3ccccn3)C2c2ccc(C(C)C)cc2)cc1 (centres undefined)
(A) -0.498

(Q) Recorded z-score for `CCCOc1ccc(C(=O)Nc2ccc3oc(-c4ccccc4)nc3c2)cc1` , please?
(A) -1.07

(Q) z-score for `Clc1ccc(OCCN2CCc3ccccc3C2)cc1` ?
(A) -1.03

(Q) Quick one: z-score of `Cc1cccc(C)c1NC(=O)c1sc2[nH]c(=O)c(C(=O)O)cc2c1N` ?
(A) -0.931

(Q) What value of z-score has been reported for the following molecule? `CCCC12CN3CC(C)(CN(C1)C(=O)c1ccccc1C3=O)C2=O`
(A) -1.98

(Q) Look up z-score: Cc1cc(Cl)ccc1OC(C)C(=O)n1cnc2ccccc21 (centres undefined)
(A) -0.42

(Q) For the molecule shown here, `COC(=O)c1ccc(COC(=O)c2cc(=O)[nH]c3ccccc23)cc1` , give the reported z-score.
(A) -0.835

(Q) Name the reported z-score value associated with the molecule `CCOC(=O)c1c(N)sc(C(=O)Nc2cc(C)ccc2C)c1C`
(A) -1.57

(Q) Which measured z-score value corresponds to COC(=O)c1ccc(C)c(NC(=O)c2ccc(C3SCC(=O)N3Cc3ccccc3)cc2)c1 (centres undefined) ?
(A) -2.22

(Q) # z-score lookup, item `O=C1OC(c2cccc(Cl)c2)=NC1=Cc1ccc(Br)o1`
(A) -1.78

(Q) Would you mind telling me what z-score value was observed for `Cc1ccc(-c2nc3ccccc3c(C(=O)O)c2C)cc1` ?
(A) -1.18

(Q) Given the molecule `COc1cc(C=NS(=O)(=O)c2cccs2)cc(Br)c1O` , what is its reported z-score?
(A) -0.74

(Q) Would you kindly share the measured z-score for `Cc1onc(-c2ccccc2)c1C(=O)Nc1cccc2c1C(=O)c1ccccc1C2=O` ?
(A) -1.02

(Q) z-score lookup needed for `Cc1ccc2nc(NC(=O)COC(=O)c3ccc(Br)o3)sc2c1` , thanks.
(A) -1.44

(Q) Tell me the measured z-score of `O=C1C(=Cc2cccc([N+](=O)[O-])c2)Sc2ccccc21` , please.
(A) -1.61

(Q) Find the recorded z-score belonging to `CCCCOc1ccc(C(=O)N2CCN(C(=O)N(C)C)CC2)cc1` and report it.
(A) -0.128

(Q) Which value of z-score has been reported for `CN(C(=O)c1cnc2n(c1=O)CCS2)c1ccccc1` in the records?
(A) -2.39

(Q) Param item = COC(=O)C1C(=O)C2=C(CC1C)NC(C)=C(C(=O)OC1CCCC1)C2c1ccccc1OC(C)C (centres undefined) ; retrieve measured z-score.
(A) -0.524

(Q) Given the molecule `CCOC(=O)Cc1ccc(N(Cc2cccs2)S(=O)(=O)c2ccc([N+](=O)[O-])cc2)cc1` , what is its reported z-score?
(A) -1.98

(Q) Endpoint output: z-score of `Cc1cc(Br)ccc1NC(=O)Cn1cnc2sc(C)c(S(=O)(=O)N3CCN(C)CC3)c2c1=O` . Value?
(A) -1.76

(Q) # lookup: z-score of `CC(=O)NCCNC(=O)c1ccc(Cn2c(=S)[nH]c3cc4c(cc3c2=O)OCO4)cc1`
(A) -1.05

(Q) # query: z-score of entry `Cc1c(Cl)cccc1N=Cc1ccc(O)cc1`
(A) -0.563

(Q) Give its z-score value. Item: `COc1ccc(NC(=O)NCCc2ccncc2)cc1`
(A) 0.0619

(Q) Look up z-score: `COc1ccccc1CNC(=O)C1CCN(S(=O)(=O)c2cccc3nonc23)CC1`
(A) -1.49

(Q) Request the reported z-score associated with `Cc1ccc(C(=O)NC(=Cc2cccnc2)C(=O)Nc2ccc(I)cc2)cc1`
(A) -0.23

(Q) Please look up its z-score: CC(C)NC1CCCc2c1[nH]c1ccc([N+](=O)[O-])cc21 (centres undefined)
(A) -0.244

(Q) # query: z-score of entry `O=C(Nc1cccc2ccccc12)ON=Cc1ccc(F)cc1`
(A) -1.4

(Q) May I ask what z-score has been recorded for `N#Cc1cccn1Cc1ccccc1Cl` ?
(A) -1.1

(Q) # z-score lookup, item `O=C(c1ccccc1F)N1CCN(c2cc(N3CCCCC3)c(F)cc2[N+](=O)[O-])CC1`
(A) -0.843

(Q) Please give the measured z-score for this molecule: `CCOc1ccc(-n2c(SCC(=O)c3ccccc3)nc3c([nH]c4ccccc43)c2=O)cc1`
(A) -2.24

(Q) Given `O=C(NN=Cc1cccc2ccccc12)c1cncc(Br)c1` , state its recorded z-score.
(A) -2.98

(Q) Can you look up the measured z-score of `COc1ccc(OC)c(NC(=O)CSc2nc3c([nH]c4ccccc43)c(=O)n2C)c1` for me?
(A) -2.15

(Q) Quick one: z-score of `Cc1cc(C)cc(NC(=O)c2cc(S(=O)(=O)NC3CCCCC3)ccc2F)c1` ?
(A) -1.42

(Q) Need z-score, item `O=[N+]([O-])c1ccc(OCc2ccc(Br)cc2)cc1`
(A) -0.994

(Q) Field request: z-score | item: `CCn1cnc2sc(C(=O)Nc3cccc([N+](=O)[O-])c3)c(C)c2c1=O`
(A) -0.931

(Q) Given the entry `CN(C)CCSc1nnnn1-c1ccccc1` , report its measured z-score.
(A) -1.86

(Q) Quick one: z-score of `Cc1ccc(-c2noc(-c3ccccc3F)n2)cc1` ?
(A) -0.911

(Q) Given `O=C(C=Cc1ccc([N+](=O)[O-])cc1)NC(=S)NN1CCOCC1` , state its recorded z-score.
(A) -1.68

(Q) What does the record list as z-score for COc1ccccc1C1C(=C(O)c2ccccc2)C(=O)C(=O)N1CC(C)O (centres undefined) ?
(A) -1.62

(Q) Given `Cc1oc2c(C)c3oc(=O)c(C)c(C)c3cc2c1-c1ccccc1` , state its recorded z-score.
(A) -0.558

(Q) State the recorded z-score for this entry: CCOC(=O)C(Cc1ccccc1)C(=O)N(C1CCCCC1)C1CCCCC1 (centres undefined)
(A) -1.82
